For reference, the following pIC50 results for UniProt Q13464 were taken from various sources.
Numbers only, as −log10 of the molar value.

{"columns": ["compound", "assayTarget", "pIC50"],
 "data": [
  ["CN(C)c1cccc(CNC(=O)c2cccc([C@@H](CO)NC(=O)c3ccc(-c4ccncc4)cc3)c2)c1", "UniProt Q13464", 8.68]
]}

Give one value of pIC50 per listed compound.
1. COc1cc(-c2cn[nH]c2)ccc1C(=O)NCc1cccc(C(=O)NC2CCN(C)CC2)c1
2. O=C(NC1CC1)c1cc2ccc(-c3nccc(Nc4ccc5[nH]ncc5c4)n3)cc2[nH]1
3. COc1cccc(C2(NC(=O)c3ccc(-c4cn[nH]c4)c(OC)c3)CC2)c1
4. CC(O)c1cc(C(=O)NC(C)c2ccccc2F)ccc1-c1cn[nH]c1 (stereo not shown)
5. COc1cc(C(=O)NCC(C#N)c2ccccc2)ccc1-c1cn[nH]c1 (stereo not shown)
6. COc1cc(-c2cn[nH]c2)ccc1C(=O)N[C@H](CO)[C@H](O)c1ccccc1
7. COC(=O)CC(NC(=O)c1ccc(-c2cn[nH]c2)c(OC)c1)c1ccccc1 (stereo in doubt)

## Result
8.91
6.05
7.26
7.28
7.41
7.19
7.27

###

# literature pull: Rho-associated protein kinase 1 (Homo sapiens, UniProt Q13464) pIC50
One number for each entry, as −log10 of the molar value.

Below, 3 compounds whose answers are already recorded.
{"columns": ["compound", "measurementName", "experimentalValue"],
 "data": [
  ["Cn1c(C(=O)N2CC3C(C2)C3(F)F)cc2ccc(-c3nccc(Nc4ccc(-c5cn[nH]c5)cc4)n3)cc21 (stereo not shown)", "pIC50", 5.44],
  ["COc1cc(C(=O)NC(C)c2ccccc2OC)ccc1-c1cn[nH]c1 (stereo in doubt)", "pIC50", 7.14],
  ["CN1CCc2ccc(NC(=O)c3cccc(C(CO)NC(=O)c4ccc(-c5ccncc5)cc4)c3)cc2C1 (stereo not shown)", "pIC50", 8.55]
]}

## Task Could you share which pIC50 value was measured for CC1=C(C(=O)Nc2ccc3[nH]ncc3c2)C(c2ccc(F)c(C(=O)NCc3c(F)cccc3F)c2)NC(=O)N1 (stereo not shown) ?
## Result 7.21

###

Compiled IC50 measurements on Rho-associated protein kinase 1 (Homo sapiens) taken from the literature.
Answers are plain numbers, in nM.

{"columns": ["chemicalSmiles", "IC50, nM"],
 "data": [
  ["COc1cc(C(=O)NC2(c3ccccc3)CCC2)ccc1-c1cn[nH]c1", 146],
  ["C[C@@H](NC(=O)Nc1ccc(-c2ccncc2)cc1)c1ccccc1", 240],
  ["O=C(c1cc2ccc(-c3nccc(Nc4ccc(-c5cn[nH]c5)cc4)n3)cc2[nH]1)N1CCC(F)(F)CC1", 3990],
  ["Cn1c(C(=O)N2CC(F)(CF)C2)cc2ccc(-c3nccc(Nc4ccc(-c5cn[nH]c5)cc4)n3)cc21", 1420],
  ["COc1cc(C(=O)N[C@H](C)c2ccccc2Cl)ccc1-c1cn[nH]c1", 40.8]
]}

Continue with the compound presented below.
## Task GET /values?readout=IC50&item= `Cn1ccc2ccc(NC(=O)c3cccc([C@@H](CO)NC(=O)c4ccc(-c5ccncc5)cc4)c3)cc2c1=O`
## Result 1.6

###

Here, molecules appear alongside pIC50 reported for UniProt:Q13464 in the literature.
pIC50: −log10 of the molar value.

These solved cases illustrate the format of a correct answer.
{"columns": ["molecule", "pIC50"],
 "data": [
  ["COc1cccc(C(CN)NC(=O)c2cccc(-c3ccc4[nH]nc(N)c4c3)c2)c1 (centres unmarked)", 7.19],
  ["COc1cc(F)cc([C@@H](CO)NC(=O)c2ncc3cc(-c4cn[nH]c4)ccn23)c1", "≥ 7.30"],
  ["O=C(Nc1ccncc1)c1cc2ccc(-c3nccc(Nc4ccc(-c5cn[nH]c5)cc4)n3)cc2[nH]1", "< 5.00"],
  ["COc1cc(F)cc([C@@H](CO)NC(=O)N2CCc3cc(-c4c[nH]nc4C)c(F)cc32)c1", "≥ 7.30"],
  ["CN1C(=O)[C@@H](Cc2ccc(-c3ccncc3)cc2)NC(=O)c2cc(Cl)ccc21", "< 4.52"],
  ["CN(C)C(=O)N1Cc2ccc(-c3nccc(Nc4ccc(-c5cn[nH]c5)cc4)n3)cc2C1", "< 5.00"],
  ["CC1=C(C(=O)Nc2ccc3[nH]ncc3c2)C(c2ccc(F)c(C(=O)NCc3cc(C(F)(F)F)cc(C(F)(F)F)c3)c2)NC(=O)N1 (centres unmarked)", 5.72]
]}

From here, focus on the item given below.
## Task What pIC50 appears in the records for this molecule with UniProt:Q13464? `N[C@H]1CCN(S(=O)(=O)c2cccc3cncc(Br)c23)C1`
## Result > 6.00

###

The entries that follow carry IC50 values tested on Rho-associated protein kinase 1 (Homo sapiens, UniProt Q13464), drawn from several published reports.
Give bare numbers, in nM.

{"columns": ["compound", "assayTarget", "IC50, nM"],
 "data": [
  ["CN(C)c1ccc(CNC(=O)c2cccc([C@@H](CO)NC(=O)c3ccc(-c4ccncc4)cc3)c2)cc1", "Rho-associated protein kinase 1 (Homo sapiens, UniProt Q13464)", 2.9]
]}

# batch: return IC50 for each of the 2 compounds below
1. O=C(c1cc2ccc(-c3nccc(Nc4ccc(-c5cn[nH]c5)cc4)n3)cc2[nH]1)N1CCC2(C1)CC2(F)F (stereo not shown)
2. COc1cc(C(=O)NCc2ccc(F)c(C(=O)O)c2)ccc1-c1cn[nH]c1

## Result
1: 3000; 2: 39.2

###

Below: compounds with IC50 recorded for Rho-associated protein kinase 1 (Homo sapiens) in separate published works.

Example entries begin here.
{"columns": ["chemicalSmiles", "IC50"],
 "data": [
  ["N[C@H]1CCN(S(=O)(=O)c2cccc3c(O)ncc(F)c23)C1", "< 1 µM"],
  ["COCn1c(C(=O)N2CC(F)(F)C2)cc2ccc(-c3nccc(Nc4ccc(-c5cn[nH]c5)cc4)n3)cc21", "> 10 µM"],
  ["COc1cc(C(=O)NCc2ccccc2C(F)(F)F)ccc1-c1cn[nH]c1", "0.0204 µM"],
  ["O=S(=O)(c1cccc2cncc(Cl)c12)N1CC[C@H](NC2CCOCC2)C1", "1 to 3 µM"],
  ["Cn1cc(-n2nc(Nc3ccc4[nH]ncc4c3Cl)c3ccccc32)cc(NC(=O)c2ccccc2F)c1=O", "< 0.3 µM"],
  ["Cn1c(C(=O)Nc2ccnnc2)cc2c1CN(c1nccc(Nc3ccc(-c4cn[nH]c4)cc3)n1)CC2", "0.05 to 0.5 µM"],
  ["O=C(N[C@H](CO)c1ccccc1)c1ccc(-c2cn[nH]c2)c(OC(F)F)c1", "0.0171 µM"]
]}

Turning to the following compound.
## Task Suppose we examine the compound `c1cc(Nc2ccc3[nH]ncc3c2)nc(N2CCc3sccc3C2)n1` ; what IC50 value has been reported?
## Result > 10 µM

###

# literature pull: Rho-associated protein kinase 1 (Homo sapiens, UniProt Q13464) IC50

Example cases with answers are listed next.
{"columns": ["compound", "measurementName", "experimentalValue"],
 "data": [
  ["COc1cccc(C(CNS(C)(=O)=O)NC(=O)c2cccc(-c3ccc4[nH]nc(C)c4c3)c2)c1 (centres unmarked)", "IC50", "587 nM"],
  ["O=C(NC(CO)c1cc(F)ccc1F)c1cccc(-c2ccc3[nH]ncc3c2)c1 (centres unmarked)", "IC50", "259 nM"],
  ["C[C@@H](NC(=O)c1cc(F)c(-c2cn[nH]c2)cc1F)c1ccccc1", "IC50", "472 nM"],
  ["CCCC(=O)Nc1cccc(-c2nc(Nc3ccc4[nH]ncc4c3)c3cc(OCCCN4CCOCC4)c(OC)cc3n2)c1", "IC50", "> 3000 nM"],
  ["C[C@@H](NC(=O)c1ccc(-c2cn[nH]c2)c(OC(F)F)c1)c1ccc(F)cc1", "IC50", "22.5 nM"],
  ["O=C(COc1cccc(-c2nc(Nc3ccc4[nH]ncc4c3)c3ccccc3n2)c1)Nc1cccnc1", "IC50", "> 10000 nM"],
  ["COc1cc(C(=O)NC(CN2CCCC2)c2ccccc2)ccc1-c1cn[nH]c1 (centres unmarked)", "IC50", "243 nM"],
  ["N[C@H]1CCN(S(=O)(=O)c2cccc3cncc(F)c23)C1", "IC50", "1000 to 3000 nM"],
  ["CN(C)C[C@H](NC(=O)N1CCc2cc(-c3c[nH]nc3F)c(F)cc21)c1cc(F)cc(F)c1", "IC50", "500 to 5000 nM"],
  ["COc1cc(F)cc([C@@H](CO)NC(=O)N2CCc3cc(-c4c[nH]nc4Cl)c(F)cc32)c1", "IC50", "50 to 500 nM"]
]}

Kindly review the next compound as well.
## Task Name the recorded IC50 for `CCOc1cc(C(=O)N[C@H](C)c2ccc(F)cc2)ccc1-c1cn[nH]c1` .
## Result 205 nM
